target: M3 muscarinic receptor (Homo sapiens, UniProt P20309); construct: expressed in transfected cells; host or cells: CHO (M3-CHO); experiment: cell-based; conditions: read-out: M3 Efficacy
Sequence (P20309 whole entry): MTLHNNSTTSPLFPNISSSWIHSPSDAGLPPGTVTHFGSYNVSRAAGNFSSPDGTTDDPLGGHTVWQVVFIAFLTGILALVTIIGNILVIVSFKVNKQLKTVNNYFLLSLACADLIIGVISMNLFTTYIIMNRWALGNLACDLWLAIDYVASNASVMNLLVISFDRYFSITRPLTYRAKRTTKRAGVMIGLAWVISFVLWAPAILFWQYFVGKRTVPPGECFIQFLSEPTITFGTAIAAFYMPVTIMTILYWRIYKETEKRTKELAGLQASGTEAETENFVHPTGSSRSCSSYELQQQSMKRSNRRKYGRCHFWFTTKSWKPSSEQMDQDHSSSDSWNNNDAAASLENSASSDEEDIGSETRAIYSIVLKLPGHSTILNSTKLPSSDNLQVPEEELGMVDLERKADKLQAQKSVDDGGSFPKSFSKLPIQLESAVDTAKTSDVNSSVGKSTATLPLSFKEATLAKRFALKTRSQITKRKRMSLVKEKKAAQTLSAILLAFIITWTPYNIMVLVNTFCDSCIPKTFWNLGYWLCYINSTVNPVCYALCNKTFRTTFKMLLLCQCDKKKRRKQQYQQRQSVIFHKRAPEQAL
READOUT TYPE: Emax

// worked examples, Emax included
>>> print(df.to_string())
                                   molecule      result
0  CCOC(=O)N1C2CCC1CC(N1CCC(N(CC(C)C)S(=O)(=O)c3ccc(C(F)(F)F)cc3)CC1)C2 (stereo not shown)       < 25%
1  CCOC(=O)N1C2CCC1CC(N1CCC(N(CC)c3ccccc3)CC1)C2 (stereo not shown)       < 25%
2  CCOC(=O)N1C2CCC1CC(N1CCC(N(C(C)=O)C3CCCC3)CC1)C2 (stereo not shown)  25 to 100%

Now, please, on to the next molecule.
Quick check: Emax of CCOC(=O)N1C2CCC1CC(N1CCC(N(CC(=O)CC)c3ccc(F)cc3)CC1)C2 (stereo not shown) ? < 25%
